SYSTEM: HLA-B*08:01
TEST DETAILS: IEDB peptide-MHC binding, purified MHC/direct/fluorescence; filed as Kd, often an IC50 or EC50 that approximates it; bounds were set here for any values at or beyond the usual limits of such assays
CONDITION DESCRIPTION: source organism: Vibrio parahaemolyticus RIMD 2210633
pKd: −log10 of the molar value.
READOUT: pKd

What does the data say about its pKd? Entry: ILRPLGIEY
≤ 4.70

----------
SYSTEM: HLA-B*40:01
TEST DETAILS: IEDB peptide-MHC binding, purified MHC/competitive/radioactivity; filed as Kd, often an IC50 or EC50 that approximates it; bounds were set here for any values at or beyond the usual limits of such assays
CONDITION DESCRIPTION: source organism: Mammarenavirus machupoense
READOUT: pKd
Answer as the number alone; pKd is minus log10 of concentration in mol/L.

What does the data say about its pKd? Entry: EEVLDVCPL
7.15

----------
SYSTEM: HLA-A*26:03
TEST DETAILS: IEDB peptide-MHC binding, purified MHC/direct/fluorescence; filed as Kd, often an IC50 or EC50 that approximates it; bounds were set here for any values at or beyond the usual limits of such assays
CONDITION DESCRIPTION: source organism: Influenza A virus (A/Taiwan/2/2006(H1N1))
READOUT: Kd

What does the data say about its Kd? Entry: CFMYSDFHF
≥ 20 µM

----------
SYSTEM: HLA-B*53:01
TEST DETAILS: IEDB peptide-MHC binding, purified MHC/competitive/radioactivity; filed as Kd, often an IC50 or EC50 that approximates it; bounds were set here for any values at or beyond the usual limits of such assays
CONDITION DESCRIPTION: source organism: Mammarenavirus juninense
READOUT: pKd
Answer as the number alone; pKd is minus log10 of concentration in mol/L.

What does the data say about its pKd? Entry: MAVELFQTI
8.16

----------
SYSTEM: HLA-B*27:05
TEST DETAILS: IEDB peptide-MHC binding, purified MHC/direct/fluorescence; filed as Kd, often an IC50 or EC50 that approximates it; bounds were set here for any values at or beyond the usual limits of such assays
CONDITION DESCRIPTION: source organism: Influenza A virus (A/egret/Hong Kong/757.3/2002(H5N1))
READOUT: Kd

What does the data say about its Kd? Entry: EEFTMVGRR
≥ 20 µM

----------
SYSTEM: HLA-B*18:01
TEST DETAILS: IEDB peptide-MHC binding, purified MHC/competitive/fluorescence; filed as Kd, often an IC50 or EC50 that approximates it; bounds were set here for any values at or beyond the usual limits of such assays
CONDITION DESCRIPTION: source organism: Vibrio parahaemolyticus RIMD 2210633
READOUT: Kd (nM)
Lab book: enter the figure in nM, no units written.

What does the data say about its Kd? Entry: ILRPLGIEY
159

----------
SYSTEM: HLA-B*07:02
TEST DETAILS: IEDB peptide-MHC binding, purified MHC/direct/fluorescence; filed as Kd, often an IC50 or EC50 that approximates it; bounds were set here for any values at or beyond the usual limits of such assays
CONDITION DESCRIPTION: source organism: Influenza A virus (A/Hong Kong/213/2003(H5N1))
READOUT: Kd

What does the data say about its Kd? Entry: CFMYSDFHF
≥ 20 µM

Each recorded value in this set is attributed to the Immune Epitope Database (IEDB).
